- TARGET_OR_SYSTEM: T1, Abp1, P15891
- T1 sequence (P15891 535-592, looked up): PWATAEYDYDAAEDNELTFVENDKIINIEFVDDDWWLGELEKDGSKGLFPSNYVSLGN
- TEST_PROTOCOL: SPOT array
- TEST_CONTEXT: median of control spots 935
MEASURED_ATTRIBUTE: SPOT intensity

BINDER	MEASURED_ATTRIBUTE	OBSERVED_RESULT
RRRIAYPFYPFKKLG	SPOT intensity	36
AKDLIVPRRPEWNEG	SPOT intensity	766
TKFRISLGLPVGAIM	SPOT intensity	289

I = VAPPPLPNRQLPNLD
II = IRMPSNPALPKKLLN
III = RPPRPPPKPLHLRTE
IV = LKVTPGRRAPTISKI
## Task // ascending sort on recorded SPOT intensity Please respond with the labels ordered as the question requires.
## Result I, IV, II, III
